B1: Gamma-crystallin S, residues 96 to 176; numbered along this chain, P22914 (parent)
chain: IQIFEKGDFSGQMYETTEDCPSIMEQFHMREIHSCKVLEGVWIFYELPNYRGRQYLLDKKEYRKPIDWGAASPAVQSFRRI

Variants of: B1
Assay: abundance fitness (aPCA) (normalised: wild type 0, dead -1); higher = more abundant; growth selection in yeast, the domain comes from the species named
Details: Homo sapiens
Measurement type: abundance fitness
Give bare numbers.

Worked cases, abundance fitness given:
D19F : -0.116
F4S : -0.113

Give abundance fitness for each of the items listed below.
1. Q26M
2. L47I
3. M24P
4. E46A
5. W42D
6. S22K
7. F4E

Result:
1: -0.04; 2: -0.436; 3: -0.099; 4: -0.016; 5: -1.06; 6: 0.062; 7: -1.16

Give abundance fitness for each of the items listed below.
1. P48W
2. P73R
3. T17D
4. E18V
5. D58W
6. Y50W
7. K60V
8. R51H

Result:
[-0.712, -0.006, -0.051, 0.002, -0.461, -0.036, -0.242, 0.013]
